SYSTEM: CSF1R (Homo sapiens)
Sequence (P07333 20-972, species assumed): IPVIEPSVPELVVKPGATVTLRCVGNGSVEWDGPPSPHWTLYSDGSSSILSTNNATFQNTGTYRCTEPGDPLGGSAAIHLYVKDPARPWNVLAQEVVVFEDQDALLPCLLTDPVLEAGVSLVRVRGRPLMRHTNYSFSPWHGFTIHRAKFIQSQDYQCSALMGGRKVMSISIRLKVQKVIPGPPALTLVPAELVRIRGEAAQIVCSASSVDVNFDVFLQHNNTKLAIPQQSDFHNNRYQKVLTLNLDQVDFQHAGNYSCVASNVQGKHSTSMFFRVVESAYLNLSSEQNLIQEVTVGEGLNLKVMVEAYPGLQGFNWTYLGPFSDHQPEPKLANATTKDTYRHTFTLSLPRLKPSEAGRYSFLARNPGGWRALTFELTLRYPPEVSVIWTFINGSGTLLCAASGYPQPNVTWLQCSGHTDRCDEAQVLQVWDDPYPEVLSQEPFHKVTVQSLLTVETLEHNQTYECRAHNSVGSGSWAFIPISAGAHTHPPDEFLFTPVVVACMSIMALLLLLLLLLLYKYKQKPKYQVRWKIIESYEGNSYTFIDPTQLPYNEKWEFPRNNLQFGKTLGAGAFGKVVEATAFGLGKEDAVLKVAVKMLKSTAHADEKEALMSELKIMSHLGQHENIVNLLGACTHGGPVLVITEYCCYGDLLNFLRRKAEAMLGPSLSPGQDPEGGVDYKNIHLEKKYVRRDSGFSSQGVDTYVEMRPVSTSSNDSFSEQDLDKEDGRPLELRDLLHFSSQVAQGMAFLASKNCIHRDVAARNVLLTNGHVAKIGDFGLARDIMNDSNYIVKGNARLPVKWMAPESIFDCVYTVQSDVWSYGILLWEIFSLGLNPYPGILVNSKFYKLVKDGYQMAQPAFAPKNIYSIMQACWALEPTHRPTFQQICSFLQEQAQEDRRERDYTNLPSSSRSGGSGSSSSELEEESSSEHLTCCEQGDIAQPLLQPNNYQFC
READOUT: pIC50
Answers are plain numbers, as −log10 of the molar value.

Any idea what pIC50 was measured for N#Cc1ccc(C(=O)Nc2ccc(N3CCN(CCF)CC3)cc2N2CCCCC2)o1 [Ligand 1] ?
8.47

# credit: paper PMC8954204
